Measured values drawn from PubChem BioAssay AID485346 for this set.

# key: entry, value: inhibition
target: Protein Mdm4 (Homo sapiens) + E3 ubiquitin-protein ligase Mdm2 (Homo sapiens) (UniProt O15151+Q00987); test: inhibitors of human Mdm2-MdmX association, primary screen, cell-based, luminescence, split luciferase, SaOS-2, uHTS (AID 485346); conditions: SaOS-2 split-luciferase Mdm2/MdmX complementation, at 8 µM, hits give high values
Sequence (O15151 whole entry, looked up): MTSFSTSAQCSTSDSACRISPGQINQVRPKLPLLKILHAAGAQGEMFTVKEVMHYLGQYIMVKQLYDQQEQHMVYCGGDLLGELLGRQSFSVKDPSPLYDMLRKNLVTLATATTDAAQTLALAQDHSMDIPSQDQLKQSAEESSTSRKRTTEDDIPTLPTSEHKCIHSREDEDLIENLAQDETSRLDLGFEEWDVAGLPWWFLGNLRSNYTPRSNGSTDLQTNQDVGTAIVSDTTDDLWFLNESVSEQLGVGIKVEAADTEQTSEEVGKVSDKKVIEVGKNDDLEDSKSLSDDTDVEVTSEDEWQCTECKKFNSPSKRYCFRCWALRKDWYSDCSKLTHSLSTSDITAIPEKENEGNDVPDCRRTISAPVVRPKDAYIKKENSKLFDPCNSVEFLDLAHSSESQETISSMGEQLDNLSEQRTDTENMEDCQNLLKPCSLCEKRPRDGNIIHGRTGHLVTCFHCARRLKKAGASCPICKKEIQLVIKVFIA
Sequence (Q00987 whole entry, looked up): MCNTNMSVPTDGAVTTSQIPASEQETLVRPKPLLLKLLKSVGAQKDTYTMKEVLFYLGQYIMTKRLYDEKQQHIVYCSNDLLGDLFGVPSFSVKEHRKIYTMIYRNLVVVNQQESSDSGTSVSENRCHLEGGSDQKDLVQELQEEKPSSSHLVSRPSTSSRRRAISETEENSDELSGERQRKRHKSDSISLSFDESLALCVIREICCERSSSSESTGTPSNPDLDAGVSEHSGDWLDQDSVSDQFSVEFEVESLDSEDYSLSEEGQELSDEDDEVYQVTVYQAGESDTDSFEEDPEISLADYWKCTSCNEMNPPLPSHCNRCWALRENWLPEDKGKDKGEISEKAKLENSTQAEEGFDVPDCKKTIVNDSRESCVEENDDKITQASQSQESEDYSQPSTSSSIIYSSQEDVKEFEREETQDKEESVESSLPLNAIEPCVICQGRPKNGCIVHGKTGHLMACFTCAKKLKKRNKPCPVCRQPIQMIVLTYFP
About 10,000 (3%) of roughly 330,000 compounds were called active. For the sample, actives were picked, then their nearest neighbours and some compounds at random.

given_smiles	inhibition (%)
Cc1ccc(S(=O)(=O)CC(=O)Nc2nnc(C)s2)cc1	7.87
CCCCn1nc(C(=O)Nc2cccc(C(=O)NC3CC3)c2)c2ccccc2c1=O	-19.3
COc1ccc(C)cc1NC(=O)CCCN1C(=O)NC(C)(C)C1=O	7.88

###

molecular target: Protein Mdm4 (Homo sapiens) + E3 ubiquitin-protein ligase Mdm2 (Homo sapiens) (UniProt O15151+Q00987); test: inhibitors of human Mdm2-MdmX association, primary screen, cell-based, luminescence, split luciferase, SaOS-2, uHTS (AID 485346); conditions: SaOS-2 split-luciferase Mdm2/MdmX complementation, at 8 µM, hits give high values
Among all 330,000 compounds or so, about 10,000 (3%) were called active. The list comes from a sample in which actives are over-represented; it also holds close analogues and randomly drawn compounds.
# key: entry, value: inhibition
recorded_endpoint: inhibition

compound	recorded_endpoint	meas_value
O=C(NCCCO)c1cc2c([nH]c3ccccc32)c(-c2ccc(F)cc2)n1	inhibition	40.9% (inactive)
Cc1ccc(F)cc1S(=O)(=O)Nc1cccc(C(=O)N2CCCC(C(N)=O)C2)c1 (stereo not drawn)	inhibition	17.8% (inactive)
COc1ccc(-c2nc3cc(C)ccn3c2NC2CCCCC2)cc1SC1CCCCC1	inhibition	92.7% (active)
Cc1ccc(S(=O)(=O)N(CC(=O)N/N=C/c2ccc(F)cc2)c2cccc3cccnc23)cc1	inhibition	4.5% (inactive)
CC(=O)Nc1ccc(S(=O)(=O)N(CCc2ccccc2)CC(=O)N/N=C/c2ccc(C(=O)O)cc2)cc1	inhibition	-1.72% (inactive)
NNC(=O)c1ccc(COCC(F)(F)C(F)F)cc1	inhibition	6.42% (inactive)
Cc1ccccc1NC(=O)CN1C(=O)N/C(=C\c2cccn2-c2cccc(C(=O)O)c2)C1=O	inhibition	11.8% (inactive)
Cc1cnc(C(=O)N2CCCC(N3CCN(c4ccccc4F)CC3)C2)cn1 (stereo not drawn)	inhibition	1.8% (inactive)
CCCCCCC(=O)N(O)C1CC(=O)N(c2ccccc2)C1=O (stereo not drawn)	inhibition	61.2% (active)
Cc1ccc(NC(=S)NC(=O)c2ccc(-c3ccccc3)cc2)cc1	inhibition	12.8% (inactive)
CCNC(=O)c1c(O)c2cccc3c2n(c1=O)CC3	inhibition	80.5% (active)
CCCc1nc2c(c(=O)c3ccccc3n2C)c(=O)n1C1CCCCCC1	inhibition	76.1% (active)
C/C(CC(=O)Nc1ccc(N(C)C)cc1)=N\NC(=O)c1ccccc1F	inhibition	11.6% (inactive)
CCOc1cc(-c2nc3cc(C)ccn3c2NCC2CCCO2)ccc1O (stereo not drawn)	inhibition	22.2% (inactive)
Nc1nonc1-n1nnc(C(=O)N/N=C\c2ccncc2)c1CN1CCCCC1	inhibition	3.58% (inactive)
Cc1ccc(Nc2cc(=O)n(C3CCCCC3)c(=O)[nH]2)cc1C	inhibition	54.2% (active)
OC(CNCCc1ccc(Cl)cc1Cl)COc1ccccc1 (stereo not drawn)	inhibition	-3.6% (inactive)
CCOC(=O)c1csc(CCNC(=O)c2oc3c(Cl)cc(C)cc3c2C)n1	inhibition	21.7% (inactive)
CC1CC(=S)Nc2ccccc2N1Cc1ccccc1 (stereo not drawn)	inhibition	18.7% (inactive)
O=C(NCc1nnc(SCC(=O)N2CCCCCC2)o1)c1ccc(F)cc1	inhibition	10.6% (inactive)
NC(=O)COc1ccc(C23CC4CC(CC(C4)C2)C3)cc1	inhibition	-45% (inactive)
CCn1c2ccccc2c2cc(NC(=O)COC(=O)c3cc(S(=O)(=O)N4CCCCC4)ccc3Cl)ccc21	inhibition	17.9% (inactive)
CCCCCN(C(=O)CCC(=O)OCC(=O)NC1CCC(C)CC1)c1c(N)n(CCCC)c(=O)[nH]c1=O (stereo not drawn)	inhibition	-18.6% (inactive)
